- ASSAY_REMARKS: blockers of bursicon-stimulated LGR2 cAMP reporter – cell-based, HEK293, CRE-luciferase reporter, cherry pick, set 2, dose response (AID 743343);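 further: transfected cells were stimulated with diluted bursicon conditioned medium after compound addition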
- Assay type: functional
Activity calls are given as the source filed them. How the calls were made is not given here.
Assign AC50 to each entry below.

I am curious: what AC50 value has been reported for COc1ccccc1C#Cc1ccc([C@H]2[C@H](C#N)N(C(=O)C3CCCCC3)[C@H]2CO)cc1 ? 5.49 µM (active)

Do the same for c1ccc2c(NCCCN3CCOCC3)c3ccccc3nc2c1 please 21 µM (active)

Do the same for COc1ccccc1N/C=C/c1onc(C)c1[N+](=O)[O-] please 3.4 µM (active)

Do the same for Cc1cc(Br)ccc1NC(=O)CNC(=O)Cn1ncc(Cl)c(Cl)c1=O please 4.51 µM (active)

Ref: ChEMBL document CHEMBL1201862
